- System: UACC-62
- test-summary: NCI tumour cell line growth inhibition, 48 h
The source made the active and inactive calls. No stated cut-off is given here; in the data, active = GI50 up to about 1.1 µM and inactive = higher.
measurement-type: GI50

Recall and state the measured GI50 for `Cc1ccc(S(=O)(=O)N/N=c2\c(C)c(C3=NS(=O)(=O)c4cc(S(N)(=O)=O)c(Cl)cc4N3)oc3c(Cl)cc(Cl)cc23)cc1` . > 100 µM (inactive)

Recall and state the measured GI50 for C[C@@H]1C(O)CC[C@H](C)C12CC=CC2=O (stereo partly specified) . > 100 µM (inactive)

Recall and state the measured GI50 for `NC1=CN(Cc2ccccc2)C2=N/C(=C\c3ccccc3)C(=O)N12` . > 100 µM (inactive)

Recall and state the measured GI50 for `O=C(Nc1cc(Cl)c(I)c(Cl)c1)C(F)(F)F` . 20.3 µM (inactive)

Recall and state the measured GI50 for `Cc1cccc(NC(=S)Nc2ccc(Cl)cc2)n1` . > 100 µM (inactive)

Recall and state the measured GI50 for CSc1ccc2c(cc1=O)C(NC(=O)c1cc(O)c(OC(=O)O)c(O)c1)CCc1cc(O)c(O)c(O)c1-2 (stereo unspecified) . 14.7 µM (inactive)

Recall and state the measured GI50 for `C/C(=N/c1[nH]c(=O)cc2c1C(=O)CC2)N(C)C` . > 200 µM (inactive)

Recall and state the measured GI50 for COc1ccc(-n2c(SC(CN3CCOCC3)CN3CCCC3=O)nc3ccccc3c2=O)cc1 (stereo unspecified) . > 100 µM (inactive)

Recall and state the measured GI50 for `COc1cc(CNc2ccc(C(C)C)cc2)cc(OC)c1OC` . 16 µM (inactive)

Recall and state the measured GI50 for COc1cc(C2C(Cl)C(=O)N2n2cnc3ccccc3c2=O)cc(OC)c1OC (stereo unspecified) . 37.9 µM (inactive)

Recall and state the measured GI50 for Cc1ccc(NC(=O)CCC(=O)C(C#N)c2ccccc2)cc1C (stereo unspecified) . > 100 µM (inactive)

###

- Test system: SNB-75
- test-summary: NCI tumour cell line growth inhibition, 48 h
Activity calls are given as the source filed them. Cut-off read from the data, not from the text of the source: active = GI50 up to about 1.1 µM and inactive = higher.
measurement-type: GI50

Recall and state the measured GI50 for COc1cc2c(c(O)c1OC)C(=O)C1CCC(=O)N1C2c1cccc2ccccc12 (stereo not given) . > 100 µM (inactive)

Recall and state the measured GI50 for O=C(CC1(O)C(=O)Nc2ccc([N+](=O)[O-])cc21)c1ccc2ccccc2c1 (stereo not given) . > 100 µM (inactive)

Recall and state the measured GI50 for `CC(=O)N/C(=C\c1ccc(/C=C(\NC(C)=O)c2nc3cc(Cl)ccc3[nH]2)cc1)c1nc2ccccc2[nH]1` . > 100 µM (inactive)

Recall and state the measured GI50 for `C=C(C)[C@@H]1CC[C@]2(C(=O)O)CC[C@]3(C)[C@H](CC[C@@H]4[C@@]5(C)CC(=O)C(C)(C)[C@@H]5CC[C@]43C)[C@@H]12` . 10.6 µM (inactive)

Recall and state the measured GI50 for `CC/C(N)=N\NC(=O)OC(C)(C)C` . > 100 µM (inactive)

###

- Tested on: SNB-19
- test-summary: NCI tumour cell line growth inhibition, 48 h
Calls of active or inactive are those of the source. Rule as the data show it: active = GI50 up to about 1.1 µM and inactive = higher.
Select the matching outcome among active, inactive

Outcome logged for COc1cc(C2c3cc4c(cc3OC(C)(N3CCCC3)C2C)OCO4)cc(OC)c1OC (stereo unspecified) in this assay: active

Outcome logged for `Cc1ccc(NC(=O)/C(Cc2nc3ccc([N+](=O)[O-])cc3nc2O)=N\NC(=O)C[n+]2ccccc2)c(C)c1` in this assay: inactive

Outcome logged for `Cc1ccc(S(=O)(=O)N2CCSCCSCCSCCN(S(=O)(=O)c3ccc(C)cc3)CC2)cc1` in this assay: inactive

Outcome logged for `CN(CCN(C)C(=O)CCn1ccc(=O)[nH]c1=O)C(=O)CCn1ccc(=O)[nH]c1=O` in this assay: inactive

Outcome logged for `COC(=O)c1c(OC(C)=O)ccc2c1c1cc3ccccc3c(OC(C)=O)c1n2C` in this assay: inactive

Outcome logged for `Cc1ccc(NC(=O)CCc2nnc(S)[nH]2)cc1` in this assay: inactive

###

- System: SNB-19
- test-summary: NCI tumour cell line growth inhibition, 48 h
The source made the active and inactive calls. Rule as the data show it: active = GI50 up to about 1.1 µM and inactive = higher. Positions of bridges follow the written chain, without caps; N, C: chain ends. Non-standard residues stand in square brackets, D forms with d. Residues, ends and D or L forms follow the SMILES beside them. Aib = CC(C)(N)C(=O)O; βAla = NCCC(=O)O
Select the matching outcome among class 1 for active, class 0 for inactive

Outcome logged for `Nc1c(Cl)ncnc1NCCCNc1ncnc(Cl)c1N` in this assay: class 0

Outcome logged for `Cc1ccc(S(=O)(=O)NCCCSCCO)cc1` in this assay: class 0

Outcome logged for `OC1=CN=C(C2CC2)Oc2ccccc21` in this assay: class 0

Outcome logged for `CCCCCCCCCc1c(Cl)nc(Cl)nc1Cl` in this assay: class 0

Outcome logged for `COC(=O)C(=O)CC(=O)c1cccc(OC)c1` in this assay: class 0

Outcome logged for CC1(C)NC(=O)C(NC(=O)C(N)CC(=O)O)CCCCNC(=O)CCNC1=O (centres undefined) (H-DK[Aib][βAla]; lactam 2-C; configuration not given here) in this assay: class 0

Outcome logged for `C=CCc1cccc2cc(C(=O)NCc3ccccc3)c(=N)oc12` in this assay: class 0

Outcome logged for O=C1CC(C[C@H](O)C2CCCCC2O)CC(=O)N1Cc1ccccc1 (some centres undefined) in this assay: class 0

Outcome logged for C[C@@H]1C(O)CC[C@H](C)C12CC=CC2=O (some centres undefined) in this assay: class 0

Outcome logged for `CC(=O)CC[N+](C)(C)C` in this assay: class 0

Outcome logged for `CN(C)CC[N+](C)(C)[BH2-]C(O)O` in this assay: class 0

Outcome logged for `Cn1c(=O)oc2cc(C(=S)N3CCC(Cc4ccccc4)CC3)ccc21` in this assay: class 0

Outcome logged for COc1cc2c(cc1OC)C(N(C)C)C(c1ccccc1)=C2Cl (centres undefined) in this assay: class 0

Outcome logged for CCCCCCC(C)CC(CCCCCC)NCCOC(=O)c1ccc([N+](=O)[O-])cc1 (centres undefined) in this assay: class 0

Outcome logged for `CN(C(=O)C1=CCC2(CC1)OCCO2)c1ccccc1I` in this assay: class 0

Outcome logged for CC(C)[Si](OCC/C=C/C1CCC(=O)C1C(O)C1CCCCC1)(C(C)C)C(C)C (centres undefined) in this assay: class 0

Outcome logged for `Cc1csc2nc3c(cnn3C)c(=S)n12` in this assay: class 0

Outcome logged for CCC/C=C/C=C/C(=O)OC1C(C)C2(O)C3C=C(C)C(=O)C3CC(COC(C)=O)=CC2C2C(C)(C)C12OC(=O)C(C)C (centres undefined) in this assay: class 0

Outcome logged for CC1C2(C)OCC(C#N)(C(=N)O2)C1(C#N)C#N (centres undefined) in this assay: class 0

Outcome logged for `NC1=CN(Cc2ccccc2)C2=N/C(=C\c3ccccc3)C(=O)N12` in this assay: class 0

Outcome logged for COc1cc(C2c3cc4c(cc3[C@@H](Nc3ccc5c(c3)OCCO5)C3COC(=O)[C@H]23)OCO4)cc(OC)c1O (some centres undefined) in this assay: class 1

Outcome logged for `Cc1cccc(NC(=S)Nc2ccc(Cl)cc2)n1` in this assay: class 0

Outcome logged for CC(Cl)(/C=C/Cl)C(Cl)/C=C/C(Cl)(CCl)CBr (centres undefined) in this assay: class 0

Outcome logged for `Oc1cccc(/C=N/N=c2/[nH][nH]/c(=N/N=C/c3cccc(O)c3)c3ccccc23)c1` in this assay: class 0

Outcome logged for `CCOC(=O)c1c(Br)c(-c2ccc(OC)cc2)c(Br)n1C` in this assay: class 0

Outcome logged for C[N+]1(C)CCc2cc(O)c(O)cc2C1Cc1ccc(O)c(O)c1 (centres undefined) in this assay: class 0

Outcome logged for `CN1C(=O)c2ccc3ccccc3c2C1=O` in this assay: class 0

Outcome logged for `COc1ccc(/C=C2\N=C(c3ccccc3)OC2=O)cc1OC(C)=O` in this assay: class 0

Outcome logged for `COc1ccc2nc(-c3ccc(O)cc3)cc(O)c2c1` in this assay: class 0

Outcome logged for COc1cc(C2c3cc4c(cc3OC(NNc3ccccc3)C2C)OCO4)cc(OC)c1OC (centres undefined) in this assay: class 0

Outcome logged for `Cc1ccc(C(=O)c2[nH]c(NCc3ccccc3)c(C(=S)Nc3ccccc3)c2N)cc1` in this assay: class 0

Outcome logged for `Cc1cccc2c1NC(=S)[C@@H]1CCCN1C2=O` in this assay: class 0

Outcome logged for `CC(C)(C)c1c2c(c(C(C)(C)C)c3c1OCN(Cc1ccccc1)C3)OCN(Cc1ccccc1)C2` in this assay: class 0

Outcome logged for `C=CCC1(Sc2ccccn2)Sc2ccc3ccccc3c2-c2c(ccc3ccccc23)S1` in this assay: class 0

###

- Tested on: OVCAR-8
- test-summary: NCI tumour cell line growth inhibition, 48 h
Calls of active or inactive are those of the source. Cut-off read from the data, not from the text of the source: active = GI50 up to about 1.1 µM and inactive = higher.
Select the matching outcome among class 1 for active, class 0 for inactive

Outcome logged for Cc1nn(C(=O)c2ccccc2O)c2c1C(c1ccccc1)SC(=N)N2 (stereo not drawn) in this assay: class 1

Outcome logged for `CC(=O)Nc1ccc(-c2nnc(SCC(=O)Nc3cccc([N+](=O)[O-])c3)o2)cc1` in this assay: class 0

Outcome logged for `CCOC(=O)C1=C(C)N(Cc2ccccc2)C(C)=C(C(=O)OCC)C1c1ccccc1O` in this assay: class 0
